Target: T1, interleukin 18 binding protein (IL-18BP) (UniProt O95998 31-194)
T1 sequence (looked up): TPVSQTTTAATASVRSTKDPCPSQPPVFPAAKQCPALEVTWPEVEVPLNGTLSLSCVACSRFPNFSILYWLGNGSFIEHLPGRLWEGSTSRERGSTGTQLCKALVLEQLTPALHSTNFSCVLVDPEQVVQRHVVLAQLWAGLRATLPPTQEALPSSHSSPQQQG
Assay: cell-based or functional assay
Measurement Label: Ratio (-BP/+BP), DF-1,000,000

Req: Requested read-out: Ratio (-BP/+BP), DF-1,000,000. Entry: IL-18 variant K53L, S55G (ligand) YFGKLESKLSVIRNLNDQVLFIDQGNRPLFEDMTDSDMRDNAPRTIFIISMYLDGQPRGMAVTISVKSEKISTLSSENKIISFKEMNPPDNIKDTKSDIIFFQRSVPGHDNKMQFESSSYEGYFLASEKERDLFKLILKKEDELGDRSIMFTVQNED
Resp: 0.89

Req: Also IL-18 variant T34L, S36V, D40A, N41S, K53G, S55W (ligand) YFGKLESKLSVIRNLNDQVLFIDQGNRPLFEDMLDVDMRASAPRTIFIISMYGDWQPRGMAVTISVKSEKISTLSSENKIISFKEMNPPDNIKDTKSDIIFFQRSVPGHDNKMQFESSSYEGYFLASEKERDLFKLILKKEDELGDRSIMFTVQNED ?
Resp: 0.97

Req: Also check IL-18 variant K53Y, S55V (ligand) YFGKLESKLSVIRNLNDQVLFIDQGNRPLFEDMTDSDMRDNAPRTIFIISMYYDVQPRGMAVTISVKSEKISTLSSENKIISFKEMNPPDNIKDTKSDIIFFQRSVPGHDNKMQFESSSYEGYFLASEKERDLFKLILKKEDELGDRSIMFTVQNED
Resp: 1.27
